# growth rescue values compiled below
procedure_text: rescue of yeast from PfHsp40 toxicity, primary screen, S. cerevisiae, ATP luminescence (AID 504582);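 also: yeast W303a lacking pdr1 and pdr3 grown in galactose medium; growth measured after three days at 30 °C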
particulars: S. cerevisiae expressing PfHsp40, growth rescue, at 12.5 µM, stronger effect = higher value
Screen size: about 340,000 compounds; about 2,300 (0.68%) were called active. The entries come from a sample that favours actives as a whole.
Respond numerically; units are % and should not be typed.

# compound, growth rescue, %
records = [
    ("CCC(O)CNc1nc(-n2nc(C)cc2C)nc2sc3c(c12)CC(C)(C)OC3 (stereo not given)", 0.423),
    ("Clc1ccccc1-c1cc(COc2ccc3ccccc3c2)no1", -0.819),
    ("C#CCNc1nc(C(C)C)nc2c1nnn2Cc1ccccc1F", -0.851),
    ("CCOc1ccc(C(CC(=O)O)NC(=O)Cc2ccccc2)cc1OC (stereo not given)", -0.249),
    ("CN(c1ccc(C(=O)NCCC2=CCCCC2)cc1)S(C)(=O)=O", -0.452),
    ("COCCN1C(=O)C(=O)/C(=C(/O)c2ccc(S(=O)(=O)N3CCOCC3)cc2)C1c1ccc(O)c(OC)c1 (stereo not given)", -0.794),
    ("COc1ccc(-c2nc3ccccc3c(=O)n2CCc2ccc(O)cc2)cc1", 31.2),
    ("COc1ccc(NC(=O)CSc2nc3ccccc3c(=O)n2C)cc1", -2.46),
]

## Task For the compound shown here, `Cc1ccc2nc(C)c3c(c2c1)N(c1ccccc1)CC3` , give the reported growth rescue.
## Result -0.127

## Task For the compound shown here, `COCCCNS(=O)(=O)c1cccc(S(=O)(=O)c2cccc(S(=O)(=O)NCCCOC)c2)c1` , give the reported growth rescue.
## Result -1.18

## Task For the compound shown here, `Cc1cc(C(=O)CCC(=O)NNC(=O)c2ccccc2O)c(C)s1` , give the reported growth rescue.
## Result -0.863

## Task For the compound shown here, `Cc1ccc(OCC(=O)NNC(=S)NCc2ccccc2)cc1` , give the reported growth rescue.
## Result -0.289

## Task For the compound shown here, `CC(C)C[C@@H](COc1ccccc1)N1CCN(CC(C)C)CCC1=O` , give the reported growth rescue.
## Result 0.09

## Task For the compound shown here, CCOC(=O)C1CCCN(C(=O)CN(c2ccc(OC)cc2)S(=O)(=O)c2c(C)noc2C)C1 (stereo not given) , give the reported growth rescue.
## Result 0.46

## Task For the compound shown here, `CCCc1ccc(OCC(=O)NNC(=S)NC(=O)c2ccco2)cc1` , give the reported growth rescue.
## Result 58

====

procedure_text: rescue of yeast from PfHsp40 toxicity, primary screen, S. cerevisiae, ATP luminescence (AID 504582);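 also: yeast W303a lacking pdr1 and pdr3 grown in galactose medium; growth measured after three days at 30 °C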
particulars: S. cerevisiae expressing PfHsp40, growth rescue, at 12.5 µM, stronger effect = higher value
Screen size: about 340,000 compounds; about 2,300 (0.68%) were called active. For the sample, actives were picked, then their nearest neighbours and some compounds at random.
quantity: growth rescue (%)
Respond numerically; units are % and should not be typed.

Example compounds with recorded growth rescue:
# compound, measured
measured = [
    ("O=S(=O)(c1cccc2nonc12)N1CCN(c2cccc(Cl)c2)CC1", 1.52),
    ("CSCCC(NC(=O)COc1ccccc1)C(=O)OCCOc1ccc(Br)cc1 (stereo not given)", -0.924),
    ("C=CCNc1nc(Nc2ccc(Cl)cc2)nc(OC)n1", 0.232),
    ("CCCCCC(O)c1cccc(OCc2ccc3ccccc3n2)c1 (stereo not given)", 57.6),
]

## Task For the compound shown here, `O=S(=O)(c1ccc(Br)cc1)n1ccc2ccccc21` , give the reported growth rescue.
## Result 17.1
